System: MDA-MB-435
experimental details: NCI tumour cell line growth inhibition, 48 h
experimental endpoint: TGI (µM)
The answer is to be given in µM; state only the numeric part.

Would you mind telling me what TGI value was observed for `COC(=O)CC1(O)C=CC(=O)C=C1` ?
21.8

Do the same for O=CC(O)C(O)C(O)C(O)COC(=O)NCCCCC(=O)C(F)(F)C(F)(F)C(F)(F)C(F)(F)C(F)(F)C(F)(F)C(F)(F)F (centres undefined) please
62.4

Do the same for CC(C)[C@H](C)/C=C/[C@@H](C)C1CC[C@H]2[C@@]34C=C[C@]5(C[C@@H](O)CC[C@]5(C)[C@H]3CC[C@]12C)OO4 (some centres undefined) please
91.6

Do the same for `COC(=O)CCC(=O)NC1=C(Nc2ccccc2)C(=O)c2ccccc2C1=O` please
3.45

These data points were gathered from PubChem BioAssay (NCI).
